Where do the numbers come from? From the supplement of paper PMC10065799.

- TESTED_SYSTEM: Grb2 SH2 (UniProt P62993)
- Sequence (P62993 whole entry, looked up, the tested form may be a part): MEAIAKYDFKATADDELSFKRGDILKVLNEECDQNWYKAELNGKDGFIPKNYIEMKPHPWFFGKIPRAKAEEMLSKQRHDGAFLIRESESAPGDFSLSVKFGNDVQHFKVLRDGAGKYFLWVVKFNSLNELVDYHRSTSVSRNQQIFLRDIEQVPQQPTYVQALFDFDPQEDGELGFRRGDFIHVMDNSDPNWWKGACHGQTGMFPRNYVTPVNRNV
- PROTOCOL_TEXT: SH2 binding enrichment of the phosphorylated peptide, bacterial display (enrichment ratio); higher = better substrate or ligand; peptides without Tyr show the background;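 further: peptide library displayed on the E. coli surface as eCPX fusions, selected cells deep-sequenced, score is each peptide's frequency after selection divided by its frequency in the input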
Label t when SH2 binding enrichment >= 0.8; otherwise f.

{"QUERY_SEQUENCE": "CGASGYSATST [CERT1_Y143_S138C]", "ASSIGNED_CLASS": "f"}
{"QUERY_SEQUENCE": "SSSNPYSTVTM [ACTN2_Y599]", "ASSIGNED_CLASS": "f"}
{"QUERY_SEQUENCE": "SLQFEYVHFGG [CDC14A_Y591_S589F_YF]", "ASSIGNED_CLASS": "t"}
{"QUERY_SEQUENCE": "LGGAMYFLEAD [PKHD1_Y452_E457D_YF]", "ASSIGNED_CLASS": "f"}
{"QUERY_SEQUENCE": "RGVTHYILQTF [SLC39A4_Y359]", "ASSIGNED_CLASS": "t"}
{"QUERY_SEQUENCE": "RDMNACIRPSP [MMAA_Y207_Y207C]", "ASSIGNED_CLASS": "t"}
{"QUERY_SEQUENCE": "LKTNCYNNGKD [DNMT3B_Y404]", "ASSIGNED_CLASS": "f"}
{"QUERY_SEQUENCE": "ELAKYYKLHHI [AK7_Y391_N389K]", "ASSIGNED_CLASS": "t"}
{"QUERY_SEQUENCE": "KQNSLYSFSDH [CCDC82_Y331]", "ASSIGNED_CLASS": "f"}
{"QUERY_SEQUENCE": "GVLKEYGEKVL [CPS1_Y529_V531E]", "ASSIGNED_CLASS": "t"}
{"QUERY_SEQUENCE": "RRYVYYYSYLL [PTEN_Y177]", "ASSIGNED_CLASS": "f"}
{"QUERY_SEQUENCE": "AEEKEYHAEEG [EGFR_Y869_G873E]", "ASSIGNED_CLASS": "t"}
{"QUERY_SEQUENCE": "ETSHNYHKFDS [MATR3_Y243]", "ASSIGNED_CLASS": "f"}
{"QUERY_SEQUENCE": "LDFPEYDGVDR [CASQ1_Y43]", "ASSIGNED_CLASS": "t"}
{"QUERY_SEQUENCE": "PTTKTYFPHFA [HBA1_Y43_D48A]", "ASSIGNED_CLASS": "f"}
{"QUERY_SEQUENCE": "RNYGTYTAGLS [RHBDD1_Y264_D262G]", "ASSIGNED_CLASS": "t"}
{"QUERY_SEQUENCE": "YCVDCYKNFVA [FHL1_Y213]", "ASSIGNED_CLASS": "t"}
{"QUERY_SEQUENCE": "PGGNIYISPLK [RB1_Y805]", "ASSIGNED_CLASS": "t"}
{"QUERY_SEQUENCE": "STDDGCIDLQF [TMEM230_Y29_Y29C]", "ASSIGNED_CLASS": "t"}

---

- TESTED_SYSTEM: Grb2 SH2 (UniProt P62993)
- PROTOCOL_TEXT: SH2 binding enrichment of the phosphorylated peptide, bacterial display (enrichment ratio); higher = better substrate or ligand; peptides without Tyr show the background
// reported SH2 binding enrichment per item

{"QUERY_SEQUENCE": "FETVKYFNNER [ABCB7_Y345_YF]", "SH2 binding enrichment": 0.862}
{"QUERY_SEQUENCE": "GGFTRYCDGKK [PROS1_Y266_C265R_YF]", "SH2 binding enrichment": 0.972}
{"QUERY_SEQUENCE": "TEQDPYNNIVH [MMUT_Y364_R369H]", "SH2 binding enrichment": 0.913}
{"QUERY_SEQUENCE": "HGEAYYSEVKP [PAK5_Y182]", "SH2 binding enrichment": 0.769}
{"QUERY_SEQUENCE": "SVTCMYSPALN [TP53_Y126_T125M]", "SH2 binding enrichment": 0.737}
{"QUERY_SEQUENCE": "ALARKYHGGGG [HBB_Y146_H144R]", "SH2 binding enrichment": 0.8}
{"QUERY_SEQUENCE": "RNVFFYSFLLK [PTEN_Y178_Y174N_YF]", "SH2 binding enrichment": 1.22}
{"QUERY_SEQUENCE": "KGELRYMHSPV [ABCD1_Y281_R285P]", "SH2 binding enrichment": 0.931}
{"QUERY_SEQUENCE": "KDFNKYVAFIE [KDM4B_Y31_YF]", "SH2 binding enrichment": 0.864}
{"QUERY_SEQUENCE": "DVRQEYPGMIL [PLXND1_Y616]", "SH2 binding enrichment": 0.889}
{"QUERY_SEQUENCE": "SAVTGYRVDVI [FN1_Y937]", "SH2 binding enrichment": 0.84}
{"QUERY_SEQUENCE": "ISTAGYSIPEL [EDAR_Y406]", "SH2 binding enrichment": 0.796}
{"QUERY_SEQUENCE": "FADIAYNYRHG [PAH_Y166]", "SH2 binding enrichment": 0.877}
{"QUERY_SEQUENCE": "DTLLEYLENPK [CYCS_Y68_M66L]", "SH2 binding enrichment": 0.763}
{"QUERY_SEQUENCE": "FCRHNYGVGES [HLA-DRB1_Y112_V115G_YF]", "SH2 binding enrichment": 1.02}
{"QUERY_SEQUENCE": "LARDMHDKEFF [MET_Y1230_Y1230H_YF]", "SH2 binding enrichment": 0.884}
{"QUERY_SEQUENCE": "HIAKGYRRDNP [HARS1_Y156_V155G]", "SH2 binding enrichment": 0.456}
{"QUERY_SEQUENCE": "ITLKGYNLSNS [GNPTAB_Y728_K732N]", "SH2 binding enrichment": 1.05}
{"QUERY_SEQUENCE": "FDSPFYQDSLP [TSC1_Y508_R509Q]", "SH2 binding enrichment": 0.917}
{"QUERY_SEQUENCE": "EVASVYESFQP [MAVS_Y92_Q93E_YF]", "SH2 binding enrichment": 0.783}
{"QUERY_SEQUENCE": "LGSNTYPFLLT [SAG_Y120]", "SH2 binding enrichment": 0.695}
{"QUERY_SEQUENCE": "RSRRSYSCQVM [IGLL1_Y192]", "SH2 binding enrichment": 0.473}
